Target or test system: Acetyl-CoA carboxylase 2 (Homo sapiens, UniProt O00763)
Sequence (O00763 whole entry, looked up): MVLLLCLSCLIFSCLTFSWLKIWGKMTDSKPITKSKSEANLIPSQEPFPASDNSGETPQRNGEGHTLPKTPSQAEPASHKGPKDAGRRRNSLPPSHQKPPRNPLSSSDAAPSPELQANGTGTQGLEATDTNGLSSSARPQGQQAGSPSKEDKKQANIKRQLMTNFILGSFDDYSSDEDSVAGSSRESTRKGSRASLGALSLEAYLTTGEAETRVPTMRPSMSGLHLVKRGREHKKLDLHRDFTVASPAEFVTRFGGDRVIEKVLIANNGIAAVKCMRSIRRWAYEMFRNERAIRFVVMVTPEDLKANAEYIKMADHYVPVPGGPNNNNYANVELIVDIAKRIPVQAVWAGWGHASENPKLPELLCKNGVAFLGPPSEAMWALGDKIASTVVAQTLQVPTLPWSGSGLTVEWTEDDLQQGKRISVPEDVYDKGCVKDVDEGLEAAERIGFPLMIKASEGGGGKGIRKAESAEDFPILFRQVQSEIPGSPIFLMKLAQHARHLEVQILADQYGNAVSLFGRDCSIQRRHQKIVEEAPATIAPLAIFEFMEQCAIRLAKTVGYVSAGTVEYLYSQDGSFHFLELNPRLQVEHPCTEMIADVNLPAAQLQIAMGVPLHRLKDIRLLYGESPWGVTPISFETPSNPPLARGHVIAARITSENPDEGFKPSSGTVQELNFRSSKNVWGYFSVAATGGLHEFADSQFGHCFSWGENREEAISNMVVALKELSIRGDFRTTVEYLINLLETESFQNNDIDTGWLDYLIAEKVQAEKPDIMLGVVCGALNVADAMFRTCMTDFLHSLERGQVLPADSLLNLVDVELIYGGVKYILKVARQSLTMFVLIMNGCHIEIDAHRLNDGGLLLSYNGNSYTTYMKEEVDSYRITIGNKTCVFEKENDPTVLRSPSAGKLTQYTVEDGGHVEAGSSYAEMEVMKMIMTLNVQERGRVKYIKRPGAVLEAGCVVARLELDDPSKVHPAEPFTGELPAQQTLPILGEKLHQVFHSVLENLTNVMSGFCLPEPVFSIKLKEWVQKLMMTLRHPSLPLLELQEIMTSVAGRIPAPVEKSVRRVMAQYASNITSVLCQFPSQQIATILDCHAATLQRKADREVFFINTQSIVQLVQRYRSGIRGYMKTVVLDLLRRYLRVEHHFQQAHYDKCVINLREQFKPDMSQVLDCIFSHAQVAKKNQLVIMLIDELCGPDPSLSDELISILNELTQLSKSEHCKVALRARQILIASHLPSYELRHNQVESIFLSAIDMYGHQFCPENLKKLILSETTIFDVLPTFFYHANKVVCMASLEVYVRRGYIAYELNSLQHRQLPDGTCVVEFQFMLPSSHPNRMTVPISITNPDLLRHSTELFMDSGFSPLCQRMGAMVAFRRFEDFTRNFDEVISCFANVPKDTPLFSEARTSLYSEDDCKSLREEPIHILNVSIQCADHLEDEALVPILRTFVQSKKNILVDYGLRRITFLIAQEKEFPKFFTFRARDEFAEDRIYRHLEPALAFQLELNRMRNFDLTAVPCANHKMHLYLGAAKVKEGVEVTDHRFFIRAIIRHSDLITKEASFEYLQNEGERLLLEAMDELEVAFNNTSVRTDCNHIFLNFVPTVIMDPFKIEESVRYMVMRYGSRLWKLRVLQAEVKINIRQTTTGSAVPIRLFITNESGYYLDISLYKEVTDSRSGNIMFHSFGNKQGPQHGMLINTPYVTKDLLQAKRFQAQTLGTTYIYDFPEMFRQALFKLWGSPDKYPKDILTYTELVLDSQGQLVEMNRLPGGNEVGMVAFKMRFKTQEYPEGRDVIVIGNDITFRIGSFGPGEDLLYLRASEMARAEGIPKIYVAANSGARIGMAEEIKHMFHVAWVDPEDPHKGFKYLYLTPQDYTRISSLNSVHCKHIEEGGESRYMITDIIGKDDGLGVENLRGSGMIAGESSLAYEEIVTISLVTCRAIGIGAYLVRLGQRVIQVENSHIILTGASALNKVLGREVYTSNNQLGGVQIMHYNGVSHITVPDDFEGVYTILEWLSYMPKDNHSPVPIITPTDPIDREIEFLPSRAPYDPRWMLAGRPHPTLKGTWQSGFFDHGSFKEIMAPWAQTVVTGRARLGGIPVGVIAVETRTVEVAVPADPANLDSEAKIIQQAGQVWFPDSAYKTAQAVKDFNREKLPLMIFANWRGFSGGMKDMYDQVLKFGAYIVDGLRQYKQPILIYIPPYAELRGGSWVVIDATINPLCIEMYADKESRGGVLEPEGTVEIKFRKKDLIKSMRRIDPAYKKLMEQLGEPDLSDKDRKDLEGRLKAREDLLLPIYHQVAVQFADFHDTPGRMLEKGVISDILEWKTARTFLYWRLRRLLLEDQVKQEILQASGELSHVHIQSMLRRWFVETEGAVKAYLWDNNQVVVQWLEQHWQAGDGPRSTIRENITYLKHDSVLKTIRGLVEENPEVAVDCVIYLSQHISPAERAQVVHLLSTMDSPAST
Assay comment: Inhibition of full length recombinant C-terminal His-tagged human ACC2 expressed in baculovirus infected sf9 cells at 30 uM using acetyl-CoA as substrate after 90 mins by ATP consumption assay relative to N-(4-(4-(4-isopropoxyphenoxy)phenyl)but-3-yn-2-yl)acetamide
Parameter: Imax. Scope: all listed entries.
Measurement label: Imax

- Compound: "CC(=O)NC(C)c1nc(-c2ccc(Oc3ccccc3)cc2)no1 (racemic)"
  Measurement label: "Imax"
  Observed result: "45%"
- Compound: "CC(=O)N[C@@H](C)c1nc(-c2ccc(Oc3ccc(Oc4ccccc4)cc3)cc2)no1"
  Measurement label: "Imax"
  Observed result: "86%"
- Compound: "CC(=O)N[C@H](C)c1nc(-c2ccc(Oc3ccc(Oc4ccccc4)cc3)cc2)no1"
  Measurement label: "Imax"
  Observed result: "67%"
- Compound: "CC(=O)NC(C)c1nc(-c2ccc(Oc3ccc(OC(C)C)cc3)cc2)no1 (centres undefined)"
  Measurement label: "Imax"
  Observed result: "74%"
